biological target: T1, (D3)3c/9 scFv; experiment: ELISA inhibition, monoclonal peptide phage preincubated with PV scFv, Dsg plate (Dsg3 by paragraph 281)
T1 construct: also called pathogenic PV mAb
Where no end group is shown, it is not given here.
Metric name: percent inhibition (%)
Answer with a number only, understood to be in %.

Determine from records and report percent inhibition for DLNYFTLSSKRE (peptide, not shown: large carriers, also: displayed on phage, fused to pIII coat protein, linker not given here, Control phage clone; tested as phage particle; also called control phage) [control peptide phage displaying a non-consensus sequence]
8

Determine from records and report percent inhibition for TTLTLRH (peptide, not shown: large carriers, also: displayed on phage, fused to pIII, Monoclonal phage clone; tested as phage particle) [P14 peptide phage]
5

Determine from records and report percent inhibition for YSNKTPHLQWRL (peptide, not shown: large carriers, also: displayed on phage, fused to pIII coat protein, linker not given here, Monoclonal phage clone; tested as phage particle) [P7 peptide phage]
6

Determine from records and report percent inhibition for ANKTSPFLMWRL (peptide, not shown: large carriers, also: displayed on phage, fused to pIII, Monoclonal phage clone from round 3 of screening with (D31)2/29 IgG; tested as phage particle) [P4 peptide phage]
7

From: patent US20100135948A1
